# target desc: Retinoic acid receptor beta (Homo sapiens, UniProt P10826)
# Sequence (P10826 whole entry): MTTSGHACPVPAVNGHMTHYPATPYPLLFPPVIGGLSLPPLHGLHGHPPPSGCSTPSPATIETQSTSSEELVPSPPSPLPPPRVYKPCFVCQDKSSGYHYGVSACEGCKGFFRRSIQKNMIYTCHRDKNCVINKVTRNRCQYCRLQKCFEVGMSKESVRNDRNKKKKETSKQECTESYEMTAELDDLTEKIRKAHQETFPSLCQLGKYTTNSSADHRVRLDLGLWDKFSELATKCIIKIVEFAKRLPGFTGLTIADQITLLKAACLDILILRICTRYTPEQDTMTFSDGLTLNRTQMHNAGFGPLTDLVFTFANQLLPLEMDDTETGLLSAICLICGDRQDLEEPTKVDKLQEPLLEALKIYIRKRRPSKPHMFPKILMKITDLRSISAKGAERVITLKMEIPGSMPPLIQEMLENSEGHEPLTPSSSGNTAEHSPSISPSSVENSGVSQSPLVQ
# assay name: Transcriptional activation in CV-1 cells expressing human Retinoic acid receptor RAR beta
# Type: cell-based
pEC50: −log10 of the molar value.
measurement kind: pEC50

In [3]: df
Out[3]:
                               input_smiles  measurement_kind  assay_result
0  CC(/C=C/CC1(c2cc(C(C)(C)C)cc(C(C)(C)C)c2)CC1)=C\C(=O)O             pEC50          6.86

---

Kd values for the molecules below.
Target protein (sequence): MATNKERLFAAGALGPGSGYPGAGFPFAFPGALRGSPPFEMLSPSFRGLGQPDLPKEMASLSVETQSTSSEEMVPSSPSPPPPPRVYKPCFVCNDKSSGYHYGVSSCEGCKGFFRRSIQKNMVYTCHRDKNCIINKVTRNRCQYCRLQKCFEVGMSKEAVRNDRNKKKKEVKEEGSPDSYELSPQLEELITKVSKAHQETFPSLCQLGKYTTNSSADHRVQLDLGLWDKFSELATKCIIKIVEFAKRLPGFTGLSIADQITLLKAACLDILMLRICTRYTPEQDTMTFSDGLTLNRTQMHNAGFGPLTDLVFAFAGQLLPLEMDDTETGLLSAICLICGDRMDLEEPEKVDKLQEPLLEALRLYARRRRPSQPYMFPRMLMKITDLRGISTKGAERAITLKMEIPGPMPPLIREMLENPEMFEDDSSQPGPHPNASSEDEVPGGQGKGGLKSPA
measurement kind: Kd

>>> df
                               input_smiles  measurement_kind  assay_result
0  CC(/C=C/CC1(c2cc3c(cc2C)C(C)(C)CCC3(C)C)CC1)=C\C(=O)O                Kd     > 1000 nM
1  CC(/C=C/CC1(c2cc(C(C)(C)C)cc(C(C)(C)C)c2)CC1)=C\C(=O)O                Kd     > 1000 nM

---

Kd tested on Retinoic acid receptor RXR-beta (Mus musculus): recorded values
Sequence (P28704 whole entry): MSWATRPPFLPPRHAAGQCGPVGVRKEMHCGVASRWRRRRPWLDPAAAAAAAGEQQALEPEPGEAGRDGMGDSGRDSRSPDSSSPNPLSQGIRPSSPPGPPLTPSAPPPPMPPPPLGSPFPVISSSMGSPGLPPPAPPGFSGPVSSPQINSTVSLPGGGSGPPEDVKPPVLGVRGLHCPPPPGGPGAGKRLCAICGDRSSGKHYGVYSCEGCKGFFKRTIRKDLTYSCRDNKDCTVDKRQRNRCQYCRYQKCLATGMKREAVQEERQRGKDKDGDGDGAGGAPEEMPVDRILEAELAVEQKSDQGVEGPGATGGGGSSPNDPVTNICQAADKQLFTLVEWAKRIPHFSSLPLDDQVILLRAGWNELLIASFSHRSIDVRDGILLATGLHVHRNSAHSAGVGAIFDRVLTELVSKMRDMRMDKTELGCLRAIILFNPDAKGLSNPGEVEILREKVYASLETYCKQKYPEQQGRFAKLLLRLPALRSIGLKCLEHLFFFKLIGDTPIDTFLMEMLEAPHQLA
measurement kind: Kd (nM)

In [3]: df
Out[3]:
                               input_smiles                               target_desc  measurement_kind  measure_unit  assay_result
0  CC(/C=C/CC1(c2ccc3c(c2)C(C)(C)CCC3(C)C)CCCC1)=C\C(=O)O  Retinoic acid receptor RXR-beta (Mus musculus)                Kd            nM             7
1  CC(/C=C/CC1(c2cc(C(C)(C)C)cc(C(C)(C)C)c2)CC1)=C\C(=O)O  Retinoic acid receptor RXR-beta (Mus musculus)                Kd            nM             8
